Each entry below carries its recorded furin cleavage Z-score.
Target: furin, P09958;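 further: purified furin at 1:10 enzyme:substrate in 50 mM HEPES pH 7.5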
Sequence (P09958 whole entry): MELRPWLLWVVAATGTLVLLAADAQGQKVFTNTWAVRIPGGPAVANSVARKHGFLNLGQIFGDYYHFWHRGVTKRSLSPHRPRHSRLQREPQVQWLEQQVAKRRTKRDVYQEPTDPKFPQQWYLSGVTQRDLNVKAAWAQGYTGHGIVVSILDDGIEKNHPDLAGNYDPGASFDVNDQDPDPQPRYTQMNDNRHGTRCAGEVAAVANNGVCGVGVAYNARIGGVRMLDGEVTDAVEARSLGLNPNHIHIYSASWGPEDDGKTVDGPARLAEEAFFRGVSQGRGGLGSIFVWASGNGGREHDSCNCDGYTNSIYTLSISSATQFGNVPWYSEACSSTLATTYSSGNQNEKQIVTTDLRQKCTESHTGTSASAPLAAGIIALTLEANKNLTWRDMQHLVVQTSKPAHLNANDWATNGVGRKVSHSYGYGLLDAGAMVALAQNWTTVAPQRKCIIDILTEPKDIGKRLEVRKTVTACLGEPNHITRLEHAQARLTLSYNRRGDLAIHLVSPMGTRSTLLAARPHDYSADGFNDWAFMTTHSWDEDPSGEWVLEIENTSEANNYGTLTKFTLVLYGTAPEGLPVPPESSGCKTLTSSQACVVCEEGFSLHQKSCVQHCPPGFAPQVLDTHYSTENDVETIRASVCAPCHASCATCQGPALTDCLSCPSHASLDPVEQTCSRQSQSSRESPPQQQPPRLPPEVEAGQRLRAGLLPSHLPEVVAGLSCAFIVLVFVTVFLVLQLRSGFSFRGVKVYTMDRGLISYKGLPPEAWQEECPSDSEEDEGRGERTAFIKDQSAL
Test: furin cleavage Z-score vs untreated control; higher = more cleavage, active = 3.5 or more, inactive = 1 or less, 8 variable residues between constant flanks
Conditions: 30 min
The list shows a part of the results. The true hit rate is not given.
experimental readout: furin cleavage Z-score

{"columns": ["chain sequence", "observed measurement"],
 "data": [
  ["CARVTRSLDVAGNASASA [FS-3127]", 7.6],
  ["CARRKKILDVAGNASASA [FS-3049]", -1.99],
  ["CARQMRSASIAGNASASA [FS-2400]", 4.94],
  ["CARKWRSWKVAGNASASA [FS-2274]", 0.0619],
  ["CADQMEECSQAGNASASA [HC1822]", 0.415],
  ["CARVTAILSSAGNASASA [HC1132]", -0.773],
  ["CARQNRSRSIAGNASASA [FS-2362]", -0.0686]
]}
